# SYSTEM_UNDER_TEST: Kappa-type opioid receptor (Homo sapiens)
# Sequence (P41145 whole entry): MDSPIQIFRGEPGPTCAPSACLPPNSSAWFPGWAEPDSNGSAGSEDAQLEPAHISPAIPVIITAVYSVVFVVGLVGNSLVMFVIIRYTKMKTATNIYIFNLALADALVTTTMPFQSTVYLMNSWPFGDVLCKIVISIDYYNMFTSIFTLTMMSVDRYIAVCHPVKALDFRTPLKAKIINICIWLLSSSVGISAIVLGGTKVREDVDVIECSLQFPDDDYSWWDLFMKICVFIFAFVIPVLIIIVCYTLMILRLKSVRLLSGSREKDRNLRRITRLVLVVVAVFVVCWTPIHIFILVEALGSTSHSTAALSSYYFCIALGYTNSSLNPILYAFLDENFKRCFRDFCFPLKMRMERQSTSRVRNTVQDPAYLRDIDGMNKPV
Decision: Ki beneath 0.1 µM gives rule met; Ki meeting or exceeding 0.1 µM gives rule not met.

{"columns": ["LINE_NOTATION", "CLASS"],
 "data": [
  ["COC(=O)N1C[C@@H]2[C@@H](N3CCCC3)CC[C@H]1CN2C(=O)Cc1ccc(Cl)c(Cl)c1", "rule not met"],
  ["CCC(=O)N1C[C@H]2[C@@H](N3CCCC3)CC[C@@H]1CN2C(=O)Cc1ccc(Cl)c(Cl)c1", "rule not met"],
  ["CCC(=O)N1C[C@@H]2[C@H](N3CCCC3)CC[C@H]1CN2C(=O)Cc1ccc(Cl)c(Cl)c1", "rule not met"],
  ["O=C(Cc1ccc(Cl)c(Cl)c1)N1C[C@@H]2CC[C@H](N3CCCC3)[C@H]1CN2Cc1ccccc1", "rule not met"],
  ["O=C(Cc1ccc(Cl)c(Cl)c1)N1C[C@H]2CC[C@@H](N3CCCC3)[C@@H]1CN2Cc1ccccc1", "rule met"],
  ["COC(=O)N1C[C@H]2[C@H](N3CCCC3)CC[C@@H]1CN2C(=O)Cc1ccc(Cl)c(Cl)c1", "rule met"],
  ["CCC(=O)N1C[C@H]2[C@H](N3CCCC3)CC[C@@H]1CN2C(=O)Cc1ccc(Cl)c(Cl)c1", "rule not met"],
  ["O=C(Cc1ccc(Cl)c(Cl)c1)N1C[C@@H]2CC[C@@H](N3CCCC3)[C@H]1CN2Cc1ccccc1", "rule not met"],
  ["O=C(Cc1ccc(Cl)c(Cl)c1)N1C[C@H]2CC[C@H](N3CCCC3)[C@@H]1CN2Cc1ccccc1", "rule not met"],
  ["COC(=O)N1C[C@@H]2[C@H](N3CCCC3)CC[C@H]1CN2C(=O)Cc1ccc(Cl)c(Cl)c1", "rule not met"],
  ["COC(=O)N1C[C@H]2[C@@H](N3CCCC3)CC[C@@H]1CN2C(=O)Cc1ccc(Cl)c(Cl)c1", "rule not met"],
  ["CCC(=O)N1C[C@@H]2[C@@H](N3CCCC3)CC[C@H]1CN2C(=O)Cc1ccc(Cl)c(Cl)c1", "rule not met"]
]}
